molecular target: Serine/threonine-protein kinase PAK 6 (Homo sapiens); assay: Percentage PAK6 activity remaining in the presence of 0.1uM inhibitor
Measured Metric: Activity (%)
Dear colleague, please return just the value in %, with no unit written.

The following compounds have reported results that may help.
CC(C)CCN1c2nc(Nc3cc(F)c(O)c(F)c3)ncc2N(C)C(=O)C1C (stereo unspecified) :: 102
CN(C)C[C@@H]1CCn2cc(c3ccccc32)C2=C(C(=O)NC2=O)c2cn(c3ccccc23)CCO1 :: 81
CC(C)[C@H](CO)Nc1nc(Nc2cccc(Cl)c2)c2ncn(C(C)C)c2n1 :: 67

Supply measured Activity of O=C(NCCCNc1nc(Nc2cccc(NC(=O)N3CCCC3)c2)ncc1I)c1cccs1 in your reply. 85

Supply measured Activity of Cn1cc(C2=C(c3cn(CCCSC(=N)N)c4ccccc34)C(=O)NC2=O)c2ccccc21 in your reply. 76

Supply measured Activity of Cc1n[nH]c2ccc(-c3cncc(OC[C@@H](N)Cc4c[nH]c5ccccc45)c3)cc12 in your reply. 87
